System name: Cytochrome P450 2C9 (Homo sapiens, UniProt P11712)
Sequence (P11712 whole entry): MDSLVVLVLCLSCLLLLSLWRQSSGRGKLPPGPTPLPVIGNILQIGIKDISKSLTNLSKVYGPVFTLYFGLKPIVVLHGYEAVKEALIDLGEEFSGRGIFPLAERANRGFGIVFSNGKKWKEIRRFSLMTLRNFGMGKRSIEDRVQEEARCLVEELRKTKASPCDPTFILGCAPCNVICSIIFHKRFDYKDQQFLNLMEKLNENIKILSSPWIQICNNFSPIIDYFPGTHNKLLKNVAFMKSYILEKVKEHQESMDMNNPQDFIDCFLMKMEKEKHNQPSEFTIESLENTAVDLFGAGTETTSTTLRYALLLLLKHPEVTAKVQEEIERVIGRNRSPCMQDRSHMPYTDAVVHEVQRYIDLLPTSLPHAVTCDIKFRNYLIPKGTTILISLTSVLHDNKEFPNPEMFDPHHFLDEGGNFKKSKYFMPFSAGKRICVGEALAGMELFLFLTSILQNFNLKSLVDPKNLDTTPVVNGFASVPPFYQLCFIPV
pIC50: −log10 of the molar value.
Readout name: pIC50

[[record]]
smiles = "Cc1ccc(NC(=O)C2(c3ccc4c(c3)OC(F)(F)O4)CC2)nc1-c1cccc(C(=O)O)c1"
readout_name = "pIC50"
result = 4.49


====

Experiment notes: Half life in dog
Assay type: ADME, Canis lupus familiaris
Condition label: in vivo
Readout name: half-life

[[record]]
compound = "N[C@H]1C[C@@H](C(=O)O)CC1=C(F)F [CPP-115 FREE BASE]"
readout_name = "half-life"
result = "1 to 2.3 h"


====

Experiment notes: Drug metabolism in human
Format: ADME
Condition label: read-out: Drug metabolism
Readout name: metabolised

[[record]]
compound = "FCOC(C(F)(F)F)C(F)(F)F [SEVOFLURANE]"
result = "2 to 5%"


====

Experiment notes: Aqueous solubility of the compound in pH 6.8 buffer
Condition label: pH 6.8 buffer
Listing: solubility of selected compounds
Readout name: solubility (µM)

[[record]]
smiles = "O=[N+]([O-])c1cn2c(n1)OC[C@@H](OCc1ccc(SC(F)(F)F)cc1)C2"
result = 5

[[record]]
smiles = "Nc1nc2ccc(SC(F)(F)F)cc2s1"
result = 124


====

Experiment notes: Volume of distribution at steady state in rhesus monkey at 0.1 mg/kg, iv administered as single dose measured after 0.083 to 48 hrs
Assay type: ADME, organism-based, Macaca mulatta
Condition label: in vivo, read-out: Vdss
Readout name: Vd

[[record]]
smiles = "COc1cc(F)c(C(C)C)cc1-c1ccc(C(F)(F)F)cc1CN1C(=O)O[C@H](c2cc(C(F)(F)F)cc(C(F)(F)F)c2)[C@@H]1C"
readout_name = "Vd"
result = "0.3 L/kg"


====

Experiment notes: Solubility of the compound in aqueous buffer at pH 6.5
Format: physicochemical
Readout name: solubility

[[record]]
compound = "FCC(F)Cc1c[nH]c2ccccc12 (stereo unspecified)"
readout_name = "solubility"
result = "> 1720 µM"


====

Experiment notes: Lipophilicity, log P of the compound
Condition label: octanol/water
Readout name: logP

[[record]]
molecule = "O=[N+]([O-])c1cn2c(n1)OC[C@@H](OCc1ccc(SC(F)(F)F)cc1)C2"
result = 2.7

[[record]]
molecule = "Nc1nc2ccc(SC(F)(F)F)cc2s1"
result = 3.6

[[record]]
molecule = "O=[N+]([O-])c1cn2c(n1)OC[C@@H](OCc1ccc(OC(F)(F)F)cc1)C2 [PRETOMANID]"
result = 2.2


====

Experiment notes: Drug metabolism in Sprague-Dawley rat liver assessed as fluoro-acetic acid metabolite level at 100 mg/kg, po measured after 2 to 8 hrs
Type: ADME, organism-based
Condition label: in vivo
Readout name: Drug metabolism

[[record]]
smiles = "C[C@H](NC(=O)[C@H](Cc1ccccc1)NC(=O)OCc1ccccc1)C(=O)CF"
result = "0.2 to 0.9 µg/g"


====

Experiment notes: Drug metabolism in Sprague-Dawley rat kidney assessed as fluoro-acetic acid metabolite level at 100 mg/kg, po measured after 2 to 8 hrs
Format: ADME, organism-based
Condition label: in vivo
Readout name: Drug metabolism

[[record]]
smiles = "C[C@H](NC(=O)[C@H](Cc1ccccc1)NC(=O)OCc1ccccc1)C(=O)CF"
readout_name = "Drug metabolism"
result = "0.2 to 0.9 µg/g"


====

Experiment notes: Drug degradation in presence of 1% magnesium stearate and lactose monohydrate measured after preserving compound for 1 to 3 months at 40 degreeC by LC-MS/MS analysis
Format: physicochemical
Condition label: read-out: Drug degradation
Readout name: degraded

[[record]]
smiles = "O=C1c2ccccc2C(Cc2ccnc(F)c2)(Cc2ccnc(F)c2)c2ccccc21"
result = "< 0.1%"


====

Experiment notes: Drug elimination in human
Format: ADME
Condition label: read-out: Drug excretion
Readout name: dose excreted (%)

[[record]]
molecule = "FC(F)(F)C(Cl)Br (stereo unspecified) [HALOTHANE]"
units_of_measure = "%"
result = 80


====

Experiment notes: Lipophilicity, logD of the compound
Format: physicochemical
Condition label: octanol/water
Readout name: logD

[[record]]
smiles = "COc1cc(F)c(C(C)C)cc1-c1ccc(C(F)(F)F)cc1CN1C(=O)O[C@H](c2cc(C(F)(F)F)cc(C(F)(F)F)c2)[C@@H]1C"
readout_name = "logD"
result = 7.1


====

Experiment notes: Half life in human hepatocytes
Assay type: ADME, cell-based, Hepatocyte
Readout name: half-life (h)

[[record]]
molecule = "N[C@H]1C[C@@H](C(=O)O)CC1=C(F)F [CPP-115 FREE BASE]"
readout_name = "half-life"
result = 20


====

Experiment notes: Intrinsic clearance in human liver microsome
Format: ADME
Condition label: liver microsomes, read-out: CLH
Listed molecules paired with reported microsomal CLint
Readout name: microsomal CLint (µL/min/mg)

[[record]]
smiles = "Nc1nc2ccc(OC(F)(F)F)cc2s1"
readout_name = "microsomal CLint"
units_of_measure = "µL/min/mg"
comparator = "="
result = 38.9

[[record]]
smiles = "Nc1nc2ccc(SC(F)(F)F)cc2s1"
readout_name = "microsomal CLint"
units_of_measure = "µL/min/mg"
comparator = "="
result = 40.9

[[record]]
smiles = "O=[N+]([O-])c1cn2c(n1)OC[C@@H](OCc1ccc(OC(F)(F)F)cc1)C2"
readout_name = "microsomal CLint"
units_of_measure = "µL/min/mg"
comparator = "<"
result = 25

[[record]]
smiles = "O=[N+]([O-])c1cn2c(n1)OC[C@@H](OCc1ccc(SC(F)(F)F)cc1)C2"
readout_name = "microsomal CLint"
units_of_measure = "µL/min/mg"
comparator = "<"
result = 25


====

Experiment notes: Half life in rat
Type: ADME
Condition label: in vivo
Readout name: half-life

[[record]]
molecule = "N[C@H]1C[C@@H](C(=O)O)CC1=C(F)F [CPP-115 FREE BASE]"
readout_name = "half-life"
result = "1 to 2.3 h"


====

Experiment notes: Apparent half life in rat brain
Assay type: ADME, tissue-based
Examples of compounds with documented half-life follow.
Readout name: half-life (min)

[[record]]
smiles = "OC[C@@H]1CC[C@H](n2cnc3c(Cl)ncnc32)O1"
readout_name = "half-life"
result = 19

[[record]]
smiles = "OC[C@@H]1CC[C@H](n2cnc3c(I)ncnc32)O1"
readout_name = "half-life"
result = 178

[[record]]
smiles = "OC[C@@H]1CC[C@H](n2cnc3c(Br)ncnc32)O1"
readout_name = "half-life"
result = 20

[[record]]
smiles = "OC[C@@H]1CC[C@H](n2cnc3c(F)ncnc32)O1"
readout_name = "half-life"
result = 0.46


====

Experiment notes: Drug recovery in rat excreta assessed as metabolically unchanged parent compound at 100 mg/kg, po
Format: ADME, organism-based
Condition label: read-out: Drug recovery
Readout name: dose excreted

[[record]]
compound = "N#Cc1c[nH]cc1-c1cccc2c1OC(F)(F)O2 [FLUDIOXONIL]"
readout_name = "dose excreted"
result = "12%"


====

Experiment notes: Aqueous solubility of the compound in pH 6.8 buffer
Condition label: buffer
Readout name: solubility (µM)

[[record]]
molecule = "O=[N+]([O-])c1cn2c(n1)OC[C@@H](OCc1ccc(OC(F)(F)F)cc1)C2 [PRETOMANID]"
readout_name = "solubility"
result = 8


====

Experiment notes: Elimination half life in human at 25 to 1200 mg, po administered as suspension measured after 5 to 816 hrs by HPLC-MS/MS analysis
Assay type: ADME, organism-based
Condition label: in vivo, read-out: beta t1/2
Readout name: half-life

[[record]]
smiles = "Cc1cc(Nc2ccc(S(F)(F)(F)(F)F)cc2)n2nc(C(C)(F)F)nc2n1"
result = "86 to 118 h"


====

Measured logP, listed per entry for reference.
Experiment notes: Lipophilicity, log P of the compound by C18 reverse phase HPLC
Type: physicochemical
Readout name: logP

[[record]]
molecule = "FC(F)(F)Oc1ccccc1"
readout_name = "logP"
result = 3.35

[[record]]
molecule = "CCOc1ccccc1 [PHENETOLE]"
readout_name = "logP"
result = 2.96

[[record]]
molecule = "CC(F)(F)Oc1ccccc1"
readout_name = "logP"
result = 2.87


====

Experiment notes: Volume of distribution at steady state in Sprague-Dawley rat at 0.5 mg/kg, iv administered as single dose measured after 0.083 to 48 hrs
Format: ADME, organism-based
Condition label: in vivo, read-out: Vdss
Readout name: Vd (L/kg)

[[record]]
smiles = "COc1cc(F)c(C(C)C)cc1-c1ccc(C(F)(F)F)cc1CN1C(=O)O[C@H](c2cc(C(F)(F)F)cc(C(F)(F)F)c2)[C@@H]1C"
units_of_measure = "L/kg"
result = 1.1


====

Experiment notes: Photodegradation of compound in deionized H20 at 10 uM by HPLC analysis
Type: physicochemical
Condition label: deionized water
Readout name: half-life at 10 µM (days)

[[record]]
compound = "CNCCC(Oc1ccc(C(F)(F)F)cc1)c1ccccc1 (stereo unspecified)"
result = 2.3


The origin of these recorded values is ChEMBL document CHEMBL4613261.
